Target: olaAHR2a (Oryzias latipes)
Sequence (A0A2I4U6J3 1-904): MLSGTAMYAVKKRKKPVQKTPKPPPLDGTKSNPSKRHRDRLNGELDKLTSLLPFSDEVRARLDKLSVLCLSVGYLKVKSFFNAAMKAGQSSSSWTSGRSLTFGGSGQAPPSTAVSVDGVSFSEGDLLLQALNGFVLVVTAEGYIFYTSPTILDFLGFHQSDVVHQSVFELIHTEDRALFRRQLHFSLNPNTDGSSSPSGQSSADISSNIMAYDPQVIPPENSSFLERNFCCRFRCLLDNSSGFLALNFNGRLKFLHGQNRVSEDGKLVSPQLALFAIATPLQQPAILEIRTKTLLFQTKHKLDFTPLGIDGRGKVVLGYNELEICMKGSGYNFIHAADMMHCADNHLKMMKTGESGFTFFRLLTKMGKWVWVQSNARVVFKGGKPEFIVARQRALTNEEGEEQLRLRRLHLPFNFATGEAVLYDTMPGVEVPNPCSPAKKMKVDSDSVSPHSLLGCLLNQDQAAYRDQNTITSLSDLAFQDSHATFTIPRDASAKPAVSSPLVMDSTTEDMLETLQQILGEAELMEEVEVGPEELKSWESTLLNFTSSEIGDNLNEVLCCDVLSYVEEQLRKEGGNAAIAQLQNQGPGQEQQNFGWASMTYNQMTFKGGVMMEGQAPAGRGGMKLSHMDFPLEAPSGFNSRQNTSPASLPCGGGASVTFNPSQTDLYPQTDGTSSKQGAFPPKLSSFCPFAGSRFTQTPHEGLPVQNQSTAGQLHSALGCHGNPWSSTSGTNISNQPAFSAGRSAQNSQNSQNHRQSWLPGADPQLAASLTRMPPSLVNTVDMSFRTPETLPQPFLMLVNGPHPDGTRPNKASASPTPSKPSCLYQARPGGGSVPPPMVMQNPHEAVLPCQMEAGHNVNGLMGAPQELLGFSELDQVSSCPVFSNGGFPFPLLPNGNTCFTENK
Test: luciferase reporter transactivation
endpointLabel: EC50 (nM)
# value in nM; strip the unit string

Request: Request the reported EC50 associated with "O=c1cc(-c2ccccc2)oc2ccc3ccccc3c12"
Response: 19.4
